system: mouse class II IA^s, purified from LS102.9 cells (mouse)
Sequence (P14437 whole entry, chain 1 of 2): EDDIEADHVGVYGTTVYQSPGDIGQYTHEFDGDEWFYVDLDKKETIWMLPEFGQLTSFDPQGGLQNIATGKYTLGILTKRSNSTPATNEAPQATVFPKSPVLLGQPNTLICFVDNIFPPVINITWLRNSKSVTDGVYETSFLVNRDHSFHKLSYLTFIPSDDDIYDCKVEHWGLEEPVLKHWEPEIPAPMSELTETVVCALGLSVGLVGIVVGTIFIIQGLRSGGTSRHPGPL
Sequence (P06345 28-263, chain 2 of 2, further chain): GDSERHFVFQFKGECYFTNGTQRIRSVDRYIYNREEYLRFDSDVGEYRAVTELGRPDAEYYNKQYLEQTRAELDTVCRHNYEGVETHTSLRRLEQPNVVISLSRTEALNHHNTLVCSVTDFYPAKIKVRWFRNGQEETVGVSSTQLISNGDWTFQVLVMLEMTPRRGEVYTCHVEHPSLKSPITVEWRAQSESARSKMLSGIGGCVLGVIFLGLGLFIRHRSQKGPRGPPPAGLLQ
assayInfo: 125I-peptide inhibition, purified class II
pIC50: −log10 of the molar value. Non-standard residues stand in square brackets, D forms with d. No end group written: not given here. Cha = N[C@@H](CC1CCCCC1)C(=O)O
metricName: pIC50

>>> print(df.to_string())
                                     binder  experimentalvalue
0          [dA]A[Cha]IAAATLKAA[dA] [906.11]               7.01
1          [dA]A[Cha]AAAATLKAA[dA] [760.57]               6.92
2  HSLGKWLGHPDKF (modifications not checked) [PLP 139-151]               7.07
